Tested on: 242566-281-R-J2-PDC complex spheroid viability;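 note: spheroids exposed to compound for 7 days before readout; 100% = DMSO vehicle control wells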
ASSAY_NAME: Anticancer human tumor 242566-281-R-J2-PDC patient-derived pancreatic carcinoma cell line growth inhibition [RAS]
CONDITION_LABEL: second compound 0.316 µM; first compound 0.0316 µM; stronger effect = lower value
PROPERTY_NAME: viability, T/C (%)
Could you give me the number in %? Just the number is fine.

{"COMPOUND": "CC(Nc1ccc2c(c1)OCCn1cc(N3C(=O)OCC3C(F)F)nc1-2)C(N)=O (centres undefined) + C=CC(=O)N1CCN(c2nc(OCC3CCCN3C)nc3c(F)c(-c4nc(N)cc(C)c4C(F)(F)F)c(Cl)cc23)C(C)C1", "ASSAY_SYSTEM": "242566-281-R-J2-PDC complex spheroid viability", "REPORTED_MEASUREMENT": 89.8}
{"COMPOUND": "CC(C)NCC(C(=O)N1CCN(c2ncnc3c2C(C)CC3O)CC1)c1ccc(Cl)cc1 (centres undefined) + C#Cc1c(F)ccc2cc(O)cc(-c3ncc4c(N5CC6CCC(C5)N6)nc(OCC56CCCN5CC(F)C6)nc4c3F)c12", "ASSAY_SYSTEM": "242566-281-R-J2-PDC complex spheroid viability", "REPORTED_MEASUREMENT": 81.2}
{"COMPOUND": "NC1c2ccccc2OC12CCN(c1cnc3c(N4CCCc5ncccc54)n[nH]c3n1)CC2 (centres undefined) + C=CC(=O)N1CCN(c2nc(OCC3CCCN3C)nc3c(F)c(-c4nc(N)cc(C)c4C(F)(F)F)c(Cl)cc23)C(C)C1", "ASSAY_SYSTEM": "242566-281-R-J2-PDC complex spheroid viability", "REPORTED_MEASUREMENT": 124}

I would be grateful if you could share the reported viability, T/C for C=CC(=O)N1CCN(c2nc(OCC3CCCN3C)nc3c(F)c(-c4nc(N)cc(C)c4C(F)(F)F)c(Cl)cc23)C(C)C1 (centres undefined) + C#Cc1c(F)ccc2cc(O)cc(-c3ncc4c(N5CC6CCC(C5)N6)nc(OCC56CCCN5CC(F)C6)nc4c3F)c12 .
60.1

I would be grateful if you could share the reported viability, T/C for CCN1CCN(Cc2ccc(Nc3ncc(F)c(-c4cc(F)c5nc(C)n(C(C)C)c5c4)n3)nc2)CC1 + C#Cc1c(F)ccc2cc(O)cc(-c3ncc4c(N5CC6CCC(C5)N6)nc(OCC56CCCN5CC(F)C6)nc4c3F)c12 .
46.7

I would be grateful if you could share the reported viability, T/C for C[C@@H](NC(=O)c1ncnc(N)c1Cl)c1ncc(C(=O)Nc2cc(C(F)(F)F)c(Cl)cn2)s1 + C#Cc1c(F)ccc2cc(O)cc(-c3ncc4c(N5CC6CCC(C5)N6)nc(OCC56CCCN5CC(F)C6)nc4c3F)c12 .
75.9

I would be grateful if you could share the reported viability, T/C for C=CC(=O)Nc1cc(Nc2nccc(-c3cn(C)c4ccccc34)n2)c(OC)cc1N(C)CCN(C)C + C=CC(=O)N1CCN(c2nc(OCC3CCCN3C)nc3c(F)c(-c4nc(N)cc(C)c4C(F)(F)F)c(Cl)cc23)C(C)C1 .
96.4

I would be grateful if you could share the reported viability, T/C for CCN1CCN(Cc2ccc(Nc3ncc(F)c(-c4cc(F)c5nc(C)n(C(C)C)c5c4)n3)nc2)CC1 + C=CC(=O)N1CCN(c2nc(OCC3CCCN3C)nc3c(F)c(-c4nc(N)cc(C)c4C(F)(F)F)c(Cl)cc23)C(C)C1 .
94.5

I would be grateful if you could share the reported viability, T/C for CC1(O)CCCC1n1c(=O)c(C(F)F)cc2cnc(NC3CCN(S(C)(=O)=O)CC3)nc21 (centres undefined) + C=CC(=O)N1CCN(c2nc(OCC3CCCN3C)nc3c(F)c(-c4nc(N)cc(C)c4C(F)(F)F)c(Cl)cc23)C(C)C1 .
96.5

Cited source: PubChem BioAssay AID2060910
